- method_summary: Cytotoxicity against human Raji cells assessed as cell viability at 500 molar ratio
- Assay type: cell-based
- condition_info: read-out: Activity
property_label: viability at 500 molar ratio

* CC1(C)CC(=O)[C@]2(C)CC[C@]3(C)C(=CC[C@@H]4[C@@]5(C)CC[C@H](O)[C@](C)(CO)[C@@H]5CC[C@]43C)[C@@H]2C1 | > 80%
* COC(=O)[C@H]1O[C@@H](O[C@H]2CC[C@@]3(C)[C@@H](CC[C@]4(C)[C@@H]3CC=C3[C@@H]5CC(C)(C)CC(=O)[C@]5(C)CC[C@]34C)[C@@]2(C)CO)[C@H](O[C@@H]2OC[C@@H](O)[C@H](O)[C@H]2O[C@@H]2O[C@@H](C)[C@H](O)[C@@H](O)[C@H]2O)[C@@H](O)[C@@H]1O | > 80%
* COC(=O)[C@H]1O[C@@H](O[C@H]2CC[C@@]3(C)[C@@H](CC[C@]4(C)[C@@H]3CC=C3[C@@H]5CC(C)(C)CC(=O)[C@]5(C)CC[C@]34C)[C@@]2(C)CO)[C@H](O[C@@H]2O[C@H](CO)[C@H](O)[C@H](O)[C@H]2O[C@@H]2O[C@@H](C)[C@H](O)[C@@H](O)[C@H]2O)[C@@H](O)[C@@H]1O [DEHYDROSOYASAPONIN I] | > 80%
* COC(=O)[C@H]1O[C@@H](O[C@H]2CC[C@@]3(C)[C@@H](CC[C@]4(C)[C@@H]3CC=C3[C@@H]5C[C@@](C)(C(=O)OC)C[C@@H](OC(C)=O)[C@]5(C)CC[C@]34C)[C@@]2(C)CO)[C@H](O[C@@H]2OC[C@@H](O)[C@H](O)[C@H]2O[C@@H]2O[C@@H](C)[C@H](O)[C@@H](O)[C@H]2O)[C@@H](O)[C@@H]1O | 10%

###

- method_summary: Cytotoxicity against human Raji cells assessed as cell viability at 100 molar ratio
- Format: cell-based
- condition_info: read-out: Activity
property_label: viability at 100 molar ratio

• COC(=O)[C@H]1O[C@@H](O[C@H]2CC[C@@]3(C)[C@@H](CC[C@]4(C)[C@@H]3CC=C3[C@@H]5CC(C)(C)CC(=O)[C@]5(C)CC[C@]34C)[C@@]2(C)CO)[C@H](O[C@@H]2OC[C@@H](O)[C@H](O)[C@H]2O[C@@H]2O[C@@H](C)[C@H](O)[C@@H](O)[C@H]2O)[C@@H](O)[C@@H]1O [WISTARIASAPONIN D] = > 80%

###

Listing of recorded viability at 100 molar ratio by entry.
- method_summary: Cytotoxicity against human Raji cells assessed as cell viability at 100 molar ratio
- Type: cell-based
- condition_info: read-out: Activity
property_label: viability at 100 molar ratio

• COC(=O)[C@H]1O[C@@H](O[C@H]2CC[C@@]3(C)[C@@H](CC[C@]4(C)[C@@H]3CC=C3[C@@H]5C[C@@](C)(C(=O)OC)C[C@@H](OC(C)=O)[C@]5(C)CC[C@]34C)[C@@]2(C)CO)[C@H](O[C@@H]2OC[C@@H](O)[C@H](O)[C@H]2O[C@@H]2O[C@@H](C)[C@H](O)[C@@H](O)[C@H]2O)[C@@H](O)[C@@H]1O = > 80%
• CC1(C)CC(=O)[C@]2(C)CC[C@]3(C)C(=CC[C@@H]4[C@@]5(C)CC[C@H](O)[C@](C)(CO)[C@@H]5CC[C@]43C)[C@@H]2C1 = > 80%
• COC(=O)[C@H]1O[C@@H](O[C@H]2CC[C@@]3(C)[C@@H](CC[C@]4(C)[C@@H]3CC=C3[C@@H]5CC(C)(C)CC(=O)[C@]5(C)CC[C@]34C)[C@@]2(C)CO)[C@H](O[C@@H]2O[C@H](CO)[C@H](O)[C@H](O)[C@H]2O[C@@H]2O[C@@H](C)[C@H](O)[C@@H](O)[C@H]2O)[C@@H](O)[C@@H]1O [DEHYDROSOYASAPONIN I] = > 80%
